Reported IC50 values follow for various compounds
- Test target: Epidermal growth factor receptor (Homo sapiens, UniProt P00533)
- Sequence (P00533 whole entry): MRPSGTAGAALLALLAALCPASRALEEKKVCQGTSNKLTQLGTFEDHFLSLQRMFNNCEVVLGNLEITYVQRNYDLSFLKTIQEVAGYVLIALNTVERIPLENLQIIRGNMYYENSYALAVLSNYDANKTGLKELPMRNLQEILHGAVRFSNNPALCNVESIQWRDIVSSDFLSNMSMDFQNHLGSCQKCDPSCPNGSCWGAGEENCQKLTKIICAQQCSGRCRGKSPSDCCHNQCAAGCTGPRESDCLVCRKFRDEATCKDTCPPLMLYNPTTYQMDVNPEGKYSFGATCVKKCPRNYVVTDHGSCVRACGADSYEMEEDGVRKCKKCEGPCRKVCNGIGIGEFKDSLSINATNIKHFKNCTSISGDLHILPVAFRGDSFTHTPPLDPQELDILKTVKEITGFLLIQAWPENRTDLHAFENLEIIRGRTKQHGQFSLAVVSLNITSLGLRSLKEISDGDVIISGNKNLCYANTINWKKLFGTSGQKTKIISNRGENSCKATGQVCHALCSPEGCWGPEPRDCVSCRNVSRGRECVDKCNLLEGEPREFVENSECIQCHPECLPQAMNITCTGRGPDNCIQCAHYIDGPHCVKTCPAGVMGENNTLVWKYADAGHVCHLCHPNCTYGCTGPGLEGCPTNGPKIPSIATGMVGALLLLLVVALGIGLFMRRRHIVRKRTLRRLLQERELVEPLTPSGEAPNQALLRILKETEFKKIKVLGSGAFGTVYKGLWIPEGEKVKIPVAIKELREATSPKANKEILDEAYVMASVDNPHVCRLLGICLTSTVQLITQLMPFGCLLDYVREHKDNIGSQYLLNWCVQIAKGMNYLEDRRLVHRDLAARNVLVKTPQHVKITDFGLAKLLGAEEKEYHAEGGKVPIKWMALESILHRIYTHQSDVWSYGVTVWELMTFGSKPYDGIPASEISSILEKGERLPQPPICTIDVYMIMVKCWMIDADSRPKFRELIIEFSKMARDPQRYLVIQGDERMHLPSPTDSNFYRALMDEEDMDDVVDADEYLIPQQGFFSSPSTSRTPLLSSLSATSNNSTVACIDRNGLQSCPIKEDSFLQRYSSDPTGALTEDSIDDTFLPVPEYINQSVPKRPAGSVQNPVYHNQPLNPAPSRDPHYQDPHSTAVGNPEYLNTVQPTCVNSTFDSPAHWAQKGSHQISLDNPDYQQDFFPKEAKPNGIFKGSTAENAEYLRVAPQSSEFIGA
- Assay protocol: Inhibitory concentration of EGF dependent autophosphorylation of epidermal growth factor receptor kinase
Response body: numeric value in µM, unit text excluded.

Structure as smiles	Observed property	Observed measurement
CCCCc1cc(/C=C(\C#N)C(N)=O)cc(CCCC)c1O	IC50	55
N#CC(C#N)=C(N)/C(C#N)=C/c1ccc(O)c([N+](=O)[O-])c1	IC50	60
N#CC(C#N)=Cc1ccc(O)cc1	IC50	560

Which IC50 reading was recorded for the compound "N#CC(C#N)=Cc1ccc(/C=C/C(=O)O)cc1" ?
450

* * *

Quick reference: IC50 of the listed items.
- Test target: Epidermal growth factor receptor (Homo sapiens, UniProt P00533)
- Assay protocol: Inhibitory concentration of EGF dependent autophosphorylation of epidermal growth factor receptor kinase
Use µM as the unit, but write only the number.

Compound	Readout unit	IC50
N#CC(C#N)=Cc1cccc(O)c1	µM	375
N#CC(C#N)=Cc1ccc([N+](=O)[O-])c(O)c1	µM	450
N#CCNC(=O)/C(C#N)=C/c1ccc(O)cc1	µM	625
N#C/C(=C\c1ccc([N+](=O)[O-])cc1)C(=O)O	µM	1300
N#CC(C#N)=Cc1ccc[nH]1	µM	260
N#CC(C#N)=Cc1cc(O)ccc1[N+](=O)[O-]	µM	96
O=C(O)C(=Cc1ccc(O)cc1)C(=O)O	µM	1500
N#CC(C#N)=C(N)/C(C#N)=C/c1ccc(O)cc1	µM	0.125
N#C/C(=C\c1ccc(O)cc1)C(=O)O [alpha-CYANO-4-HYDROXYCINNAMIC ACID]	µM	308
N#CC(C#N)=Cc1ccc(O)c([N+](=O)[O-])c1	µM	125

State the recorded IC50 for this entry: "N#CC(C#N)=C(O)c1ccc(O)cc1"
230

Moving on to the next compound: "COc1ccc(NN=C(C#N)C#N)cc1"
600

Record: "N#CC(C#N)=Cc1ccncc1"
250

Likewise for "COc1cc(C=C(C#N)C#N)ccc1O" ?
200

Cool, now "COc1cc(/C=C(\C#N)C(=O)O)cc(OC)c1O"
700

Lookup "COc1cc(C=C(C#N)C#N)cc(O)c1O"
6

* * *

- Test target: Epidermal growth factor receptor (Homo sapiens, UniProt P00533)
- Assay protocol: Inhibitory concentration of EGF dependent autophosphorylation of epidermal growth factor receptor kinase
pIC50: −log10 of the molar value.
I would appreciate it if you labelled entries Satisfied when pIC50 is 3 or higher, otherwise Not satisfied.

Use the examples below as a reference point.
Molecule	Test target	Class assignment
CN(C)c1ccc(/C=C(\C#N)C(=O)O)cc1	Epidermal growth factor receptor (Homo sapiens, UniProt P00533)	Not satisfied
N#C/C(=C\c1ccc(F)cc1)C(=O)O	Epidermal growth factor receptor (Homo sapiens, UniProt P00533)	Not satisfied
N#C/C(=C\c1ccc(O)c(O)c1)C(=O)O	Epidermal growth factor receptor (Homo sapiens, UniProt P00533)	Satisfied
N#C/C(=C\c1ccccc1)C(=O)O	Epidermal growth factor receptor (Homo sapiens, UniProt P00533)	Not satisfied

Does N#C/C(=C\c1ccc(O)cc1)C(=O)O [alpha-CYANO-4-HYDROXYCINNAMIC ACID] have a reported pIC50 of at least 3?
Satisfied

# iterate: "COc1ccc(/C=C(\C#N)C(=O)O)cc1"
Not satisfied

Again, but for "COc1cc(/C=C(\C#N)C(=O)O)cc(OC)c1O"
Satisfied

Next entry: "Cc1ccc(/C=C(\C#N)C(=O)O)cc1"
Not satisfied

Also, "COc1cc(/C=C(\C#N)C(=O)O)ccc1O" please.
Satisfied

Query "N#C/C(=C\c1ccc(C=O)cc1)C(=O)O" next
Satisfied

* * *

Measured IC50 by item
- Test target: Epidermal growth factor receptor (Homo sapiens, UniProt P00533)
- Assay protocol: Inhibitory concentration of EGF dependent autophosphorylation of epidermal growth factor receptor kinase

Solved entries:
Structure as smiles	Observed measurement
COc1ccc(C=C(C#N)C#N)cc1O	> 250 µM
N#C/C(=C\c1ccccc1)C(=O)O	> 2500 µM

// next entry
Please look up its IC50: "COc1cc(C=C(C#N)C#N)cc(OC)c1"
> 1250 µM

* * *

- Test target: Epidermal growth factor receptor (Homo sapiens)
- Assay protocol: Inhibitory concentration of EGF dependent autophosphorylation of epidermal growth factor receptor kinase
pIC50: −log10 of the molar value.
Kindly note that classification relies on pIC50 with these boundaries: lowest (below 3), middle (3 to below 4), highest (4 or more)

# count of solved cases: 4
Structure as smiles	Class assignment
N#CC(C#N)=Cc1ccc(F)cc1	lowest
CC(=C(C#N)C#N)c1ccc(N)cc1	lowest
CC(=C(C#N)C#N)c1ccc(NC(=O)CCC(=O)O)cc1	middle
N#CC(C#N)=Cc1ccc(NC(=O)CCC(=O)O)cc1	middle

Band of "N#C/C(=C/c1cc(O)ccc1O)C(=O)O" ?
highest

Moving on to "O=C(O)/C=C/c1ccc(O)cc1"
lowest

Queued: "COc1cc(C=C(C#N)C#N)cc(Br)c1O"
middle

What about "N#C/C(=C\c1ccc(C=O)cc1)C(=O)O" ?
middle

Then this molecule: "N#CC(C#N)=Cc1cc(O)cc(O)c1"
highest

Entry to check: "N#CC(C#N)=Cc1ccc(C(=O)O)cc1"
middle

Please answer likewise for "N#CC(C#N)=Cc1cc(O)c(O)c(O)c1"
highest

What do you have for "N#CC(C#N)=C(N)/C(C#N)=C/c1ccc(O)c(O)c1" ?
highest

Also check "COc1ccc(C(O)=C(C#N)C#N)cc1"
middle

Cool, now "N#CC(C#N)=Cc1cc[n+]([O-])cc1"
lowest

Similarly, "N#CC(C#N)=Cc1ccc(C=O)cc1" ?
highest

Entry to check: "N#CC(C#N)=C(O)c1cc(O)c(O)c(O)c1"
highest

Next molecule: "N#CC(C#N)=NNc1ccc(O)cc1"
middle

Okay, and "COc1ccc(/C=C(\C#N)C(=O)O)cc1" ?
lowest

Here is the next molecule: "CC(C)(C)c1cc(C=C(C#N)C#N)cc(C(C)(C)C)c1O"
middle

Same thing, different molecule: "N#CC(C#N)Cc1ccc(O)cc1"
lowest

# iterate: "N#C/C(=C\c1ccc(O)cc1)C(N)=O"
middle

Now consider "N#CC(C#N)=C1C(=O)NC(=O)NC1=O" .
lowest

Similarly, "N#C/C=C/c1ccc(O)cc1" ?
lowest

Okay, and "O=CN/C=C/c1cc(O)ccc1O" ?
highest

Follow-up entry: "COc1cc(/C=C(\C#N)C(=O)O)ccc1O"
middle

Now the same for "N#C/C(=C\c1ccc(O)c(O)c1)C(N)=O"
highest

Then this molecule: "COc1cc(C=C(C#N)C#N)cc([N+](=O)[O-])c1O"
middle

Also "N#CC(C#N)=C(N)/C(C#N)=C/c1cc(O)c(O)c(O)c1" ?
highest

Another: "N#CC(C#N)=C(N)/C(C#N)=C/c1cc(O)c(O)c(Br)c1"
highest

# repeat for "N#C/C(=C\c1ccc(O)c(O)c1)C(=O)O"
highest

* * *

- Test target: Epidermal growth factor receptor (Homo sapiens)
- Assay protocol: Inhibitory concentration of EGF dependent autophosphorylation of epidermal growth factor receptor kinase
Observed property: pIC50
Remember the convention: pIC50 equals -log10 of concentration in molar.

Structure as smiles	Test target	pIC50
COc1cc(C=C(C#N)C#N)cc(OC)c1O	Epidermal growth factor receptor (Homo sapiens)	3.07
O=C(O)/C=C/c1ccc(O)c(O)c1	Epidermal growth factor receptor (Homo sapiens)	2.92
N[C@@H](Cc1ccc(O)c(O)c1)C(=O)O	Epidermal growth factor receptor (Homo sapiens)	3.05
COc1cc(/C(C)=C(\C#N)C(=O)O)ccc1O	Epidermal growth factor receptor (Homo sapiens)	2.96
N#CC(C#N)=CNc1ccc(O)cc1	Epidermal growth factor receptor (Homo sapiens)	3.46

Please look up its pIC50: "N#C/C(=C/c1ccc[nH]1)C(=O)O"
2.87

Try the compound "N#C/C(=C\c1ccc(F)cc1)C(=O)O"
2.60
